- tested-target: MAGEB2 peptide … / HLA-A*02:01 / b2m (human)
- procedure-details: FACS
measurement-name: Kd (nM)
Numeric only. Scale: nM

Some binders with known Kd results, for comparison:
MA 03-E11 AS CC (G2B) (antibody, V domains shown) VH: EVQLLESGGGLVQPGGSLRLSCAASGFTFSSHAMSWVRQAPGKCLEWVSAISGSGGGTYNAASVKGRFTISRDNSKNTLYLQMNSLRAEDTAAYYCVTGKGVHLGFDYWGQGTLVTVSS VL: SYVLTQPPSVSVAPGQTARITCGGNNIGSKSVHWYQQKPGQAPVMVVYDDNDRPSGIPERFSGSNSGNTATLTISRVEAGDEADYYCQVWDYYSNRAVFGCGTKLTVL	4.2
MA 03-D12_AS CC (L6A) (antibody, V domains shown) VH: EVQLLESGGGLVQPGGSLRLSCAASGFTFSSHAMSWVRQAPGKCLEWVSAISGSGGGTYYAASVKARFTISRDNSKNTLYLQMNSLRAEDTAVYYCATGKGVHLGFDYWGQGTLVTVSS VL: SYVLTQPPSVSVAPGQTARITCGGNNIGSKSVHWYQQKPGQAPVMVVYDDNDRPSGIPERFSGSNSGNTATLTISRVEAGDEADYYCQVWDYLRQQQVFGCGTKLTVL	0.7

Here is another binder to look at.
Task: Identify measured Kd associated with MA SG-F28 CC (D9R) (antibody, V domains shown) VH: QVQLQESGPGLVKPSQTLSLTCTVSGDSISSNPYYWSWIRQHPGKCLEWIGYISYSGITNYNPSLKSRVTMSVDTSKNQFSLKLTSLTAADTAVYYCAREKMWFGVLNYYYGMDVWGQGTTVTVSS VL: DIVMTQTPLSLPVTPGEPASISCRSSQSLLHRSGYNYLDWYLQKPGQSPQLLIYLGSNRASGVPDRFSGSGSGTDFTLKISRVEAGDVGVYYCMQALQTPWTFGCGTKVEIK
Result: 76.8
